Where these numbers come from: ChEMBL document CHEMBL1142699

- TARGET_ENTITY: Nociceptin receptor (Mus musculus)
- TEST_PROTOCOL: Maximal inhibition of electrically evoked contraction of mouse vas deferens; Effect evident only in some tissues
- Assay type: functional
- EXPERIMENTAL_CONTEXT: filed as agonist
Numbered stars: 1 amine (or outer) side, 2 acyl side, 3 side chain; on linkers, the order of the positions; unused ones are H or OH. Square brackets hold non-standard residues; d marks the D form. Peptide text beside a SMILES is read from it. X1 = N[C@@H](Cc1ccccc1)CN(CC(=O)[*:2])[*:1]; Phe(4-F) = N[C@@H](Cc1ccc(F)cc1)C(=O)O
PROPERTY: Emax

Provide value of Emax for this record tested with Nociceptin receptor (Mus musculus): C[C@H](NC(=O)CNC(=O)[C@@H](NC(=O)[C@H](Cc1ccc(F)cc1)NC(=O)CNC(=O)CNC(=O)CNCc1ccccc1)[C@@H](C)O)C(=O)N[C@@H](CCCN=C(N)N)C(=O)N[C@@H](CCCCN)C(=O)N[C@@H](CO)C(=O)N[C@@H](C)C(=O)N[C@@H](CCCN=C(N)N)C(=O)N[C@@H](CCCCN)C(=O)N[C@@H](CCCN=C(N)N)C(=O)N[C@@H](CCCCN)C(=O)N[C@@H](CC(N)=O)C(=O)N[C@@H](CCC(=O)N(N)N)C(=O)NN Agonist

Note, next up: CC(C)C[C@H](NC(=O)[C@H](CCCCN)NC(=O)[C@H](CCCN=C(N)N)NC(=O)[C@H](C)NC(=O)[C@H](CO)NC(=O)[C@H](CCCCN)NC(=O)[C@H](CCCN=C(N)N)NC(=O)[C@H](C)NC(=O)CNC(=O)[C@@H](NC(=O)[C@H](Cc1ccc(F)cc1)NC(=O)CNC(=O)CNC[C@@H](N)Cc1ccccc1)[C@@H](C)O)C(=O)N[C@@H](C)C(=O)N[C@@H](CC(N)=O)C(=O)N[C@@H](CCC(N)=O)C(N)=O (H-[X1]G[Phe(4-F)]TGARKSARKLANQ-NH2) Agonist

Note, next up: CC(C)C[C@H](NC(=O)[C@H](CCCCN)NC(=O)[C@H](CCCN=C(N)N)NC(=O)[C@H](C)NC(=O)[C@H](CO)NC(=O)[C@H](CCCCN)NC(=O)[C@H](CCCN=C(N)N)NC(=O)[C@H](C)NC(=O)CNC(=O)[C@@H](NC(=O)[C@H](Cc1ccc(F)cc1)NC(=O)CNC(=O)CNC(=O)CNCc1ccccc1)[C@@H](C)O)C(=O)N[C@@H](C)C(=O)N[C@@H](CC(N)=O)C(=O)N[C@@H](CCC(N)=O)C(N)=O Agonist
